# systemUnderTest: human recombinant MAO-B (Homo sapiens, UniProt P27338)
# Sequence (P27338 whole entry): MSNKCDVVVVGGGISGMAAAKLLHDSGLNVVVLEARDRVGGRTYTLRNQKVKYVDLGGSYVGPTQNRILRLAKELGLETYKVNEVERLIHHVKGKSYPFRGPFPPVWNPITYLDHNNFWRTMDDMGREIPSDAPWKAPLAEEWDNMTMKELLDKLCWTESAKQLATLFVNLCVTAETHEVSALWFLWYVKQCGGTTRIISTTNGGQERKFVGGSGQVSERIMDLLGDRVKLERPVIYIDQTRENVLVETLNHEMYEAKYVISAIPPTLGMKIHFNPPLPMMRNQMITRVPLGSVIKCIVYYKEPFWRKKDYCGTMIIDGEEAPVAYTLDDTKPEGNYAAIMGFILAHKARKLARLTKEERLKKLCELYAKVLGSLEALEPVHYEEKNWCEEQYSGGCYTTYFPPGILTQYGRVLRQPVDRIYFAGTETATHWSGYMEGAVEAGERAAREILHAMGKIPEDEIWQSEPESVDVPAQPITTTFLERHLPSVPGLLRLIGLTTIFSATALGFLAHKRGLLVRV
# testDescription: Inhibition of monoamine oxidase B
# Assay type: biochemical
# assayConditions: read-out: MAO-B % Inhibition at 10 µM, 10 µM; mean of three experiments
readoutName: inhibition at 10 µM (%)
Your answer is read as %, so omit the unit and give the number.

Example compounds with recorded inhibition at 10 µM:
| compound | measValue |
| --- | --- |
| O=C(c1nc2ccc(OCCCCN3CCCC3)cc2s1)N1CCCC1 | 49 |
| O=C(c1nc2ccc(OCCN3CCCC3)cc2s1)N1CCCC1 | 47 |
| O=C(c1nc2ccc(OCCCN3CCCC3)cc2s1)N1CCCC1 | 24 |

Bench note, human recombinant MAO-B (Homo sapiens, UniProt P27338): entry CC1CCCN(CCCOc2ccc3nc(C(=O)N4CCCC(C)C4)sc3c2)C1 (centres unmarked) , its inhibition at 10 µM = 48

Bench note, human recombinant MAO-B (Homo sapiens, UniProt P27338): entry `O=C(c1nc2ccc(OCCCN3CCCCC3)cc2s1)N1CCCCC1` , its inhibition at 10 µM = 28

Bench note, human recombinant MAO-B (Homo sapiens, UniProt P27338): entry `O=C(NCCN1CCCC1)c1nc2ccc(OCCCNCCN3CCCC3)cc2s1` , its inhibition at 10 µM = 51

Bench note, human recombinant MAO-B (Homo sapiens, UniProt P27338): entry `O=C(NC1CCCC1)c1nc2ccc(OCCCCCNC3CCCC3)cc2s1` , its inhibition at 10 µM = 47

Bench note, human recombinant MAO-B (Homo sapiens, UniProt P27338): entry `O=C(c1nc2ccc(OCCCCN3CCCCC3)cc2s1)N1CCCCC1` , its inhibition at 10 µM = 48

Bench note, human recombinant MAO-B (Homo sapiens, UniProt P27338): entry `O=C(c1nc2ccc(OCCCN3CCCCCC3)cc2s1)N1CCCCCC1` , its inhibition at 10 µM = 46

Source of measurements: paper PMC9937012
